test details: AUC (0 to t) in Sprague-Dawley rat at 5 mg/kg, po measured up to 24 hrs by LC/MS/MS analysis
Format: ADME, organism-based
Set-up: route oral, dose 5 mg/kg, time <=24
measurement conditions: in vivo
measured metric: AUC(0-t) at 24 h (ng·h/mL)
Respond with the bare value in ng·h/mL.

[[record]]
smiles = "O=C(Cc1ccc(-c2ccc(OCCN3CCOCC3)cc2)cn1)NCc1ccccc1"
measurement_unit = "ng·h/mL"
value_reported = 840

[[record]]
smiles = "O=C(Cc1ccc(-c2ccc(OCCN3CCN(C(=O)[C@@H]4C[C@@H]4F)CC3)cc2)cn1)NCc1ccccc1"
measurement_unit = "ng·h/mL"
value_reported = 4180

[[record]]
smiles = "O=C(Cc1ccc(-c2ccc(OCCN3CCN(C(=O)CC4CC4)CC3)cc2)cn1)NCc1ccccc1"
measurement_unit = "ng·h/mL"
value_reported = 1050

[[record]]
smiles = "O=C(Cc1ccc(-c2ccc(OCCN3CCN(C(=O)C4CC4)CC3)cc2)cn1)NCc1ccccc1"
measurement_unit = "ng·h/mL"
value_reported = 1620


Query: Consider the molecule shown here: O=C(Cc1ccc(-c2ccc(OCCN3CCN(C(=O)C4CCC4)CC3)cc2)cn1)NCc1ccccc1 What is its recorded AUC(0-t) at 24 h?
Reply: 383

###

Tested on: Ramos
test details: Antiproliferative activity against human Ramos cells assessed as inhibition of cell proliferation measured after 72 hrs by MTT assay
Format: functional, cell-based
measured metric: pIC50
Recall that pIC50 is obtained by taking minus log10 of the concentration measured in molar.

[[record]]
compound = "O=C(Cc1ccc(-c2ccc(OCCN3CC4CC4C3)cc2)cn1)NCc1ccccc1 (stereo not drawn)"
value_reported = 7.71

[[record]]
compound = "CC(=O)N1CCN(CCOc2ccc(-c3ccc(CC(=O)NCc4ccccc4)nc3)cc2)CC1"
value_reported = 8.14

[[record]]
compound = "COC1CCN(CCOc2ccc(-c3ccc(CC(=O)NCc4ccccc4)nc3)cc2)CC1"
value_reported = 7.80


Now for another entry.
Query: # get_value(readout='pIC50', item= O=C(Cc1ccc(-c2ccc(OCCCCN3CCOCC3)cc2)cn1)NCc1ccccc1 )
Reply: 7.36

###

test details: Half life in Sprague-Dawley rat at 5 mg/kg, po measured up to 24 hrs by LC/MS/MS analysis
Type: ADME, organism-based
measurement conditions: in vivo
Hi, to clarify the labels: yes covers half-life from 5 h upward, no covers anything below 5 h.

Query: Confirm if half-life reported for the compound O=C(Cc1ccc(-c2ccc(OCCN3CCN(C(=O)CC4CC4)CC3)cc2)cn1)NCc1ccccc1 is 5 h or above.
Reply: no

Query: Record O=C(Cc1ccc(-c2ccc(OCCN3CCN(C(=O)C4CCC4)CC3)cc2)cn1)NCc1ccccc1 ; criterion: half-life no lower than 5 h. Met?
Reply: no

Query: Test whether the compound O=C(Cc1ccc(-c2ccc(OCCN3CCOCC3)cc2)cn1)NCc1ccccc1 records half-life of 5 h or higher.
Reply: yes

Query: // inclusive: half-life at least 5 h? input: O=C(Cc1ccc(-c2ccc(OCCN3CCN(C(=O)C4CC4)CC3)cc2)cn1)NCc1ccccc1
Reply: no

###

Reported half-life values for a set of compounds
test details: Half life in human liver microsomes
Format: ADME, Microsome
Provide only the numeric value, understood in min.

Observe how each entry below is paired with its result.
[[record]]
compound = "O=C(Cc1ccc(-c2ccc(OCCN3CCOCC3)cc2)cn1)NCc1ccccc1 [TIRBANIBULIN]"
measured_metric = "half-life"
value_reported = 44.1

[[record]]
compound = "O=C(Cc1ccc(-c2ccc(OCCN3CCN(C(=O)CC4CC4)CC3)cc2)cn1)NCc1ccccc1"
measured_metric = "half-life"
value_reported = 27.8

[[record]]
compound = "O=C(Cc1ccc(-c2ccc(OCCN3CCN(C(=O)C4CCC4)CC3)cc2)cn1)NCc1ccccc1"
measured_metric = "half-life"
value_reported = 20.6

[[record]]
compound = "O=C(Cc1ccc(-c2ccc(OCCN3CCN(C(=O)[C@@H]4C[C@@H]4F)CC3)cc2)cn1)NCc1ccccc1"
measured_metric = "half-life"
value_reported = 52.1


Could you now consider this next compound?
Query: What half-life value was documented for this compound, O=C(Cc1ccc(-c2ccc(OCCN3CCN(C(=O)C4CC4)CC3)cc2)cn1)NCc1ccccc1 ?
Reply: 38.5

###

test details: Tmax in Sprague-Dawley rat at 5 mg/kg, po measured up to 24 hrs by LC/MS/MS analysis
Type: ADME, organism-based
measurement conditions: in vivo
measured metric: Tmax (min)
A number alone suffices; assume min.

Some compounds with known Tmax results, for comparison:
[[record]]
compound = "O=C(Cc1ccc(-c2ccc(OCCN3CCOCC3)cc2)cn1)NCc1ccccc1 [TIRBANIBULIN]"
measurement_unit = "min"
value_reported = 15

[[record]]
compound = "O=C(Cc1ccc(-c2ccc(OCCN3CCN(C(=O)C4CCC4)CC3)cc2)cn1)NCc1ccccc1"
measurement_unit = "min"
value_reported = 8.4

[[record]]
compound = "O=C(Cc1ccc(-c2ccc(OCCN3CCN(C(=O)C4CC4)CC3)cc2)cn1)NCc1ccccc1"
measurement_unit = "min"
value_reported = 49.8

[[record]]
compound = "O=C(Cc1ccc(-c2ccc(OCCN3CCN(C(=O)CC4CC4)CC3)cc2)cn1)NCc1ccccc1"
measurement_unit = "min"
value_reported = 19.8


Turning now to a further record.
Query: // returns reported Tmax for input O=C(Cc1ccc(-c2ccc(OCCN3CCN(C(=O)[C@@H]4C[C@@H]4F)CC3)cc2)cn1)NCc1ccccc1
Reply: 42

###

test details: Oral bioavailability in Sprague-Dawley rat at 5 mg/kg measured up to 24 hrs by LC/MS/MS analysis
Format: ADME, organism-based
measurement conditions: in vivo
bioavailability: recorded values
# output: bare number, implied unit %

Query: Fill blank: measured bioavailability of the compound O=C(Cc1ccc(-c2ccc(OCCN3CCN(C(=O)C4CCC4)CC3)cc2)cn1)NCc1ccccc1 is ____.
Reply: 13.3

###

test details: Clearance in Sprague-Dawley rat at 5 mg/kg, po measured up to 24 hrs by LC/MS/MS analysis
Type: ADME, organism-based
measurement conditions: in vivo
measured metric: CL/F (mL/min/kg)
Entry rule: numbers only, all in mL/min/kg.

In the examples that follow, each entry is paired with its recorded CL/F.
[[record]]
smiles = "O=C(Cc1ccc(-c2ccc(OCCN3CCN(C(=O)C4CCC4)CC3)cc2)cn1)NCc1ccccc1"
measured_metric = "CL/F"
measurement_unit = "mL/min/kg"
value_reported = 209

[[record]]
smiles = "O=C(Cc1ccc(-c2ccc(OCCN3CCOCC3)cc2)cn1)NCc1ccccc1"
measured_metric = "CL/F"
measurement_unit = "mL/min/kg"
value_reported = 88.5

[[record]]
smiles = "O=C(Cc1ccc(-c2ccc(OCCN3CCN(C(=O)CC4CC4)CC3)cc2)cn1)NCc1ccccc1"
measured_metric = "CL/F"
measurement_unit = "mL/min/kg"
value_reported = 80.2

[[record]]
smiles = "O=C(Cc1ccc(-c2ccc(OCCN3CCN(C(=O)C4CC4)CC3)cc2)cn1)NCc1ccccc1"
measured_metric = "CL/F"
measurement_unit = "mL/min/kg"
value_reported = 55.7


Now for the compound whose CL/F we want.
Query: Please give the measured CL/F for this compound: O=C(Cc1ccc(-c2ccc(OCCN3CCN(C(=O)[C@@H]4C[C@@H]4F)CC3)cc2)cn1)NCc1ccccc1
Reply: 25.8

###

assayed target: Tubulin
test details: Binding affinity to tubulin (unknown origin) assessed as dissociation constant by tryptophan based binding assay
Kd for assorted molecules
Kindly provide the numeric value in µM only, without the unit symbol.

Look over these answered cases.
[[record]]
smiles = "O=C(Cc1ccc(-c2ccc(OCCN3CCN(C(=O)C4CCC4)CC3)cc2)cn1)NCc1ccccc1"
assayed_target = "Tubulin"
measured_metric = "Kd"
value_reported = 0.63

[[record]]
smiles = "O=C(Cc1ccc(-c2ccc(OCCN3CCN(C(=O)[C@@H]4C[C@@H]4F)CC3)cc2)cn1)NCc1ccccc1"
assayed_target = "Tubulin"
measured_metric = "Kd"
value_reported = 0.3

[[record]]
smiles = "O=C(Cc1ccc(-c2ccc(OCCN3CCOCC3)cc2)cn1)NCc1ccccc1"
assayed_target = "Tubulin"
measured_metric = "Kd"
value_reported = 1.11

[[record]]
smiles = "O=C(Cc1ccc(-c2ccc(OCCN3CCN(C(=O)CC4CC4)CC3)cc2)cn1)NCc1ccccc1"
assayed_target = "Tubulin"
measured_metric = "Kd"
value_reported = 0.61


Query: Field request: Kd | item: O=C(Cc1ccc(-c2ccc(OCCN3CCN(C(=O)C4CC4)CC3)cc2)cn1)NCc1ccccc1
Reply: 0.29

###

test details: Cmax in Sprague-Dawley rat at 5 mg/kg, po measured up to 24 hrs by LC/MS/MS analysis
Format: ADME, organism-based
Parameters: route oral, dose 5 mg/kg, time <=24
measurement conditions: in vivo
measured metric: Cmax
In your response, the unit should come after the numeric value.

[[record]]
molecule = "O=C(Cc1ccc(-c2ccc(OCCN3CCN(C(=O)C4CCC4)CC3)cc2)cn1)NCc1ccccc1"
value_reported = "484 ng/mL"

[[record]]
molecule = "O=C(Cc1ccc(-c2ccc(OCCN3CCOCC3)cc2)cn1)NCc1ccccc1 [TIRBANIBULIN]"
value_reported = "431 ng/mL"

[[record]]
molecule = "O=C(Cc1ccc(-c2ccc(OCCN3CCN(C(=O)C4CC4)CC3)cc2)cn1)NCc1ccccc1"
value_reported = "593 ng/mL"


Query: # get_value(readout='Cmax', item= O=C(Cc1ccc(-c2ccc(OCCN3CCN(C(=O)CC4CC4)CC3)cc2)cn1)NCc1ccccc1 )
Reply: 398 ng/mL

Query: Requested read-out: Cmax. Entry: O=C(Cc1ccc(-c2ccc(OCCN3CCN(C(=O)[C@@H]4C[C@@H]4F)CC3)cc2)cn1)NCc1ccccc1
Reply: 742 ng/mL
